tested on: SK-MEL-5; assay: NCI tumour cell line growth inhibition, 48 h
Active and inactive are the calls of the source. Cut-off read from the data, not from the text of the source: active = GI50 up to about 1.1 µM and inactive = higher.
Listing of entries alongside the reported GI50.

- COMPOUND: "CC1=C(C(=O)OC23CC4CC(CC(C4)C2)C3)C(c2ccccc2OC(F)F)C(C(=O)OC23CC4CC(CC(C4)C2)C3)=C(C)N1 (centres undefined)"
  QUANTITY: "GI50"
  MEASURED RESULT: "> 100 µM (inactive)"

Look up GI50 with SK-MEL-5 for this compound: CN(C)CC1CCC/C1=N/OC(=O)c1ccccc1 (centres undefined)
> 100 µM (inactive)

Field: GI50 (SK-MEL-5). Entry: COc1cccc(-n2c3nc(=O)n(C)c(=O)c-3nc3ccccc32)c1
3.24 µM (inactive)

Provide the documented GI50 with SK-MEL-5 as the system for CCOC(=O)/C=C/[C@@H](CC)O[Si](C(C)C)(C(C)C)C(C)C
> 100 µM (inactive)
